B1: library; numbered along this chain (parent)
chain: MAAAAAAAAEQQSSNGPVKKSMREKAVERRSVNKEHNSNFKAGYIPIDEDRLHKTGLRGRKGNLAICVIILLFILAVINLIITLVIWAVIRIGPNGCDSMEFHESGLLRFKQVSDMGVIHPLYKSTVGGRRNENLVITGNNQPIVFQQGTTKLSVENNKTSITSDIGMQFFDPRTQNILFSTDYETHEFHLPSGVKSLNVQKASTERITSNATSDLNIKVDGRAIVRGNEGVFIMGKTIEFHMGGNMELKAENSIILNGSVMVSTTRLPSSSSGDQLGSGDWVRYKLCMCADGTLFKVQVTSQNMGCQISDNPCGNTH

variants of: B1; test: SGCB cell-surface expression functional score (HA stain, bin4 vs bin1, normalised to synonymous) (log10 ratio); higher = more cell-surface SGCB (functional)
Measured SGCB cell-surface expression functional score (log10) accompanies every entry in the list below.
Output spec: single numeric token, no unit.

Worked examples follow.
MUTATION NAME: V113T
QUANTITATIVE READOUT: -0.1

MUTATION NAME: H187W
QUANTITATIVE READOUT: 0.48

Exercise: # get_value(readout='SGCB cell-surface expression functional score (log10)', item= `D172Y` )
Key: -0.12

Exercise: What about `D115K` ?
Key: -0.97

Exercise: What about `V89N` ?
Key: -2.05

The reported measurements were obtained from the supplement of paper PMC10266784.
